# METHOD_DESCRIPTION: Log P by HPLC on reversed phase, method [a], acidic range (0.1% formic acid)
# Type: physicochemical
# TEST_PARAMETERS: LC-UV, 0.1% formic acid in water and acetonitrile
ASSAY_METRIC: LogP

INSERT INTO assay_data (molecular_string, reported_value) VALUES
  ('Cc1c(NC(=O)c2ccc(Cl)nc2C(F)F)cnn1C(C)(C)C', '2.25^[a]'),
  ('O=C(Nc1cnn(-c2cc(Cl)cc(Cl)c2)c1C(F)(F)F)c1cccnc1C(F)F', '3.64^[a]'),
  ('O=C(Nc1cnn(-c2ccc(Br)cc2)c1-c1cccc(F)c1)c1cccnc1C(F)F', '3.19^[a]'),
  ('Cc1c(NC(=O)c2cccnc2C(F)F)cnn1-c1ccc(C(F)(F)F)cc1', '2.53^[a]');
